Data credit: patent US20240092835A1

# Tested on: NKG2A+/NKG2C− NK cells
# experiment.summary: NK cell activation markers in NKG2A+/NKG2C- NK cells incubated with peptide and K562 expressing HLA-E (inhibition)
# Type: cell-based, human
# assay.setup: NKG2A+/NKG2C- NK cells, K562/HLA-E, Trial 4
Where no end group is shown, it is not given here.
Each entry gets not met if its percentage of IFNG+ NK cells stays under 0.8%, and met if its percentage of IFNG+ NK cells is 0.8% or above.

q: Hello, I need to know if QMPSRSLLF [human1, QMPSRSLLF] has measured percentage of IFNG+ NK cells not below 0.8%. Thanks!
a: met

q: Check the entry NMPARTVLF [human14, peptide MTREX 490-498 derived from the human proteome] : does percentage of IFNG+ NK cells equal or exceed 0.8%?
a: met

q: # bool: percentage of IFNG+ NK cells of VMPPRTLLL [human15, peptide HLA-A 3-11 derived from the human proteome] >= 0.8%
a: not met

q: Please tell me: is the sequence TAPARTMFL [human13, TAPARTMFL] at or over 0.8% in terms of percentage of IFNG+ NK cells?
a: met

q: Hello, I need to know if VMAPRTLIL [VMAPRTLIL (LIL), positive control peptide, reference compound] has measured percentage of IFNG+ NK cells not below 0.8%. Thanks!
a: not met

q: Is percentage of IFNG+ NK cells for FLPNRSLLF [human8, peptide SLC52A3 354-362 derived from the human proteome] at or above 0.8%?
a: met

q: Determine whether this sequence has percentage of IFNG+ NK cells no lower than 0.8%: VMPGRTLCF [human11, peptide TACR3 226-234 derived from the human proteome]
a: not met

q: Check if percentage of IFNG+ NK cells >= 0.8% (inclusive). Item: VMAPQSLLL [VMAPQSLLL (PQS), negative control peptide, reference compound]
a: met

====

# test.target: CD94/NKG2C (Homo sapiens, UniProt P26717+Q13241)
# Sequence (P26717 94-231 limits assumed): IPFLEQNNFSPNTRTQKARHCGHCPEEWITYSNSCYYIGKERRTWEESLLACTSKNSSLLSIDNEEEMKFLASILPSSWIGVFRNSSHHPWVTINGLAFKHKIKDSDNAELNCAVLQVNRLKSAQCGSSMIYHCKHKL
# Sequence (Q13241 32-179 limits assumed): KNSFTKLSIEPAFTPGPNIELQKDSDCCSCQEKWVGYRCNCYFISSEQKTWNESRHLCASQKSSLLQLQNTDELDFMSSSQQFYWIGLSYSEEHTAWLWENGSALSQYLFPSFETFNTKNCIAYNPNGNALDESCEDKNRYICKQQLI
# experiment.summary: Steady-state surface plasmon resonance of peptide-HLA-E complex with CD94/NKG2C
# Type: binding
# assay.setup: steady-state SPR; CD94/NKG2C analyte concentration 0.4 μM
Where no end group is shown, it is not given here.
measured.property: Binding of peptide-HLA-E complexes to CD94/NKG2C normalized to a theoretical Rmax
Answers are plain numbers.

Take a look at these entries with their results.
residue.codes	endpoint.value
VNPGRSLFL [human5, VNPGRSLFL]	0.076
TAPARTMFL [human13, TAPARTMFL]	0.030
TLPKRGLFL [human2, TLPKRGLFL]	0.017

As a next step, examine the sequence that follows.
q: Which value of Binding of peptide-HLA-E complexes to CD94/NKG2C normalized to a theoretical Rmax has been reported for TGPWRSLWI [human3, TGPWRSLWI] in the records?
a: 0.004

====

Exercise: state measured HLA-E surface expression stability (GeoMFI) for each of the sequences provided.
# test.target: HLA-E (Homo sapiens, UniProt P13747)
# Construct: expressed in transfected cells; host or cells: RMA-S/HLA-E cells (antigen processing-defective lymphoma cell line)
# Sequence (P13747 22-358): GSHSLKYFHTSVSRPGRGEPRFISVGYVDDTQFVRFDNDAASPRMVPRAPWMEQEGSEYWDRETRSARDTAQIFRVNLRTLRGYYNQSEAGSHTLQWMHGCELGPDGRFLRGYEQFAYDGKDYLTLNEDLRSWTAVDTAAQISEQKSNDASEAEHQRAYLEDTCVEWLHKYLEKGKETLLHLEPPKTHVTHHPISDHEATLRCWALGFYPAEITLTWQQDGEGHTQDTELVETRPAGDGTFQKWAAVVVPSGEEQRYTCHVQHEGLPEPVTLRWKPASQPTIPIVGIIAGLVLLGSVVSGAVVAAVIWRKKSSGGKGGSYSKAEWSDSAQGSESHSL
# Sequence (P61769 21-119 partner): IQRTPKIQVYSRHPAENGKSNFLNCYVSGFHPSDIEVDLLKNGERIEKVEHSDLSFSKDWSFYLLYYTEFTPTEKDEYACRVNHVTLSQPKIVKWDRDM
# experiment.summary: HLA-E surface stabilization assay with RMA-S/HLA-E cells
# Assay type: cell-based
# assay.setup: 30 μM peptide, 16 hours, anti-HLA-E antibody, Trial 4
# Experimental: HLA-E surface expression was assessed by measuring geometric mean fluorescence intensity (GeoMFI) in RMA-S cells following immunofluorescence staining with an anti-HLA-E antibody (Table 14). Increased GeoMFI was indicative of increased HLA-E surface expression stability following novel peptide exposures (FIG. 3).
Where no end group is shown, it is not given here.
Numbers only, in GeoMFI.

Below, each entry is followed by its recorded HLA-E surface expression stability (GeoMFI) result.
residue.codes	test.target	endpoint.value
VMPGRTLCF [human11, peptide TACR3 226-234 derived from the human proteome]	HLA-E (Homo sapiens, UniProt P13747)	3610
TGPWRSLWI [human3, TGPWRSLWI]	HLA-E (Homo sapiens, UniProt P13747)	596
TLPKRGLFL [human2, TLPKRGLFL]	HLA-E (Homo sapiens, UniProt P13747)	2795

Would you kindly look at the next entry?
q: Given the entry RMPPRSVLL [human12] , report its measured HLA-E surface expression stability (GeoMFI).
a: 4705
